# Study Target: human carbonic anhydrase II (hCA II) (Homo sapiens)
# Construct: from tissue
# Experimental Protocol: CO2 hydratase activity assay (Maren method), hCA II
# Assay type: biochemical
# Condition Set: hydratase method; enzyme purified from human erythrocytes; read-out: IC50 (hydratase) hCA II
Can you tell me IC50 for the items I'm about to list?
Numeric only. Scale: µM

Report IC50, nothing else, for this compound: "O=C(NC[C@H]1CN(c2ccc(N3CCOCC3=O)cc2)C(=O)O1)c1ccc(Cl)s1"
204

// fetch IC50 given entry "CCCSc1nc(N[C@@H]2C[C@H]2c2ccc(F)c(F)c2)c2nnn([C@@H]3C[C@H](OCCO)[C@@H](O)[C@H]3O)c2n1"
195

Please look at this compound and report its IC50: CC(=O)Oc1cc2c(s1)CCN(C(C(=O)C1CC1)c1ccccc1F)C2 (stereo not drawn)
205
